# IC50 per entry
# EXPERIMENTAL SYSTEM: Serine/threonine-protein kinase PAK 4 (Homo sapiens, UniProt O96013)
# Sequence (O96013 whole entry): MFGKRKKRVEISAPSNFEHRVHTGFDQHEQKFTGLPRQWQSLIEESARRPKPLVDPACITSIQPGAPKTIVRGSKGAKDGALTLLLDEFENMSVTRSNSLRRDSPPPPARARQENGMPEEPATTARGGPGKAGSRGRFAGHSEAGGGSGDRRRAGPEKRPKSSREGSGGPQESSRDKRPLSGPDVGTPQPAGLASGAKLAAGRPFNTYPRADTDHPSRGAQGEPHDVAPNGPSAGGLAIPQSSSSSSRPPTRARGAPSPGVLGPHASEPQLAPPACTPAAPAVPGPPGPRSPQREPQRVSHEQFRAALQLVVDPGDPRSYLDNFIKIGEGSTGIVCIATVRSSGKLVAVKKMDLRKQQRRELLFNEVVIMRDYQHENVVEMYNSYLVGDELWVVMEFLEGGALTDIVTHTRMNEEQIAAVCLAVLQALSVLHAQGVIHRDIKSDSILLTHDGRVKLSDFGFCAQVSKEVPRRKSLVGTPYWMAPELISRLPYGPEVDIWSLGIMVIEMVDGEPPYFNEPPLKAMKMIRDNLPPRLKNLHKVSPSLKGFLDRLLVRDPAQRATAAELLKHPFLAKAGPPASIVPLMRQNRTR
# PROTOCOL DESCRIPTION: Inhibition of PAK4 (unknown origin) assessed as accumulation of ADP by ADP hunter plus assay

{"SMILES ENTRY": "Cn1c(Br)c(C#N)c2c(N)ncnc21", "EXPERIMENTAL SYSTEM": "Serine/threonine-protein kinase PAK 4 (Homo sapiens, UniProt O96013)", "IC50": "> 200 µM"}
{"SMILES ENTRY": "Cc1nc(N)c2c(C#N)c(-c3cccc(F)c3F)n(C)c2n1", "EXPERIMENTAL SYSTEM": "Serine/threonine-protein kinase PAK 4 (Homo sapiens, UniProt O96013)", "IC50": "> 50 µM"}
{"SMILES ENTRY": "Cc1nc(N)c2c(C#N)c(-c3cccnc3)[nH]c2n1", "EXPERIMENTAL SYSTEM": "Serine/threonine-protein kinase PAK 4 (Homo sapiens, UniProt O96013)", "IC50": "> 50 µM"}
{"SMILES ENTRY": "CCn1c(-c2cccc(F)c2F)c(C#N)c2c(N)nc(C)nc21", "EXPERIMENTAL SYSTEM": "Serine/threonine-protein kinase PAK 4 (Homo sapiens, UniProt O96013)", "IC50": "> 50 µM"}
{"SMILES ENTRY": "Cc1nc(N)c2c(C#N)c(-c3cccc(F)c3F)[nH]c2n1", "EXPERIMENTAL SYSTEM": "Serine/threonine-protein kinase PAK 4 (Homo sapiens, UniProt O96013)", "IC50": "> 50 µM"}

====

# EXPERIMENTAL SYSTEM: Dual specificity tyrosine-phosphorylation-regulated kinase 1B (Homo sapiens, UniProt Q9Y463)
# Sequence (Q9Y463 whole entry): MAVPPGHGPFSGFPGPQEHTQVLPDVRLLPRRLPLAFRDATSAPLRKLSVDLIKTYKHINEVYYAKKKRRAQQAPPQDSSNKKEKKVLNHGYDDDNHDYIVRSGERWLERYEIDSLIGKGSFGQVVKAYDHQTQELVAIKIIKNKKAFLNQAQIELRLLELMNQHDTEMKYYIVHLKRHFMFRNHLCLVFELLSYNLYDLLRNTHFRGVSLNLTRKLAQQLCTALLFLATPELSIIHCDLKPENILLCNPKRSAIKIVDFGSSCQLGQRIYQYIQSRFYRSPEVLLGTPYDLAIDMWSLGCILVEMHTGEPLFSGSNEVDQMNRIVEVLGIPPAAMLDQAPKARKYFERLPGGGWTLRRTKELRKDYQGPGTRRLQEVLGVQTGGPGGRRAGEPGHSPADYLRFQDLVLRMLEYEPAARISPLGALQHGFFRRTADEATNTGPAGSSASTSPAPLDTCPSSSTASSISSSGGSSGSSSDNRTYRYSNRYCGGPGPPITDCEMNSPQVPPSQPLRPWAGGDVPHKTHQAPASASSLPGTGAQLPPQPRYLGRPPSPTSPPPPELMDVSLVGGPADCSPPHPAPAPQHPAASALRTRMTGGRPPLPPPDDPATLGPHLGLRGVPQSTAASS
# PROTOCOL DESCRIPTION: Inhibition of DYRK1B (unknown origin) by TR FRET assay

{"SMILES ENTRY": "Cc1nc(NCc2ncccc2F)c2c(-c3ccnc(N)c3)c[nH]c2n1", "IC50": "7 nM"}
{"SMILES ENTRY": "Cc1nc(-c2ccc3c(c2)OCO3)c2c(-c3ccnc(N)c3)c[nH]c2n1", "IC50": "10 nM"}
{"SMILES ENTRY": "Cc1nc(NCc2c(F)cccc2F)c2c(-c3ccnc(N)n3)c[nH]c2n1", "IC50": "10 nM"}

====

# EXPERIMENTAL SYSTEM: hERG (Homo sapiens, UniProt Q12809)
# Sequence (Q12809 whole entry): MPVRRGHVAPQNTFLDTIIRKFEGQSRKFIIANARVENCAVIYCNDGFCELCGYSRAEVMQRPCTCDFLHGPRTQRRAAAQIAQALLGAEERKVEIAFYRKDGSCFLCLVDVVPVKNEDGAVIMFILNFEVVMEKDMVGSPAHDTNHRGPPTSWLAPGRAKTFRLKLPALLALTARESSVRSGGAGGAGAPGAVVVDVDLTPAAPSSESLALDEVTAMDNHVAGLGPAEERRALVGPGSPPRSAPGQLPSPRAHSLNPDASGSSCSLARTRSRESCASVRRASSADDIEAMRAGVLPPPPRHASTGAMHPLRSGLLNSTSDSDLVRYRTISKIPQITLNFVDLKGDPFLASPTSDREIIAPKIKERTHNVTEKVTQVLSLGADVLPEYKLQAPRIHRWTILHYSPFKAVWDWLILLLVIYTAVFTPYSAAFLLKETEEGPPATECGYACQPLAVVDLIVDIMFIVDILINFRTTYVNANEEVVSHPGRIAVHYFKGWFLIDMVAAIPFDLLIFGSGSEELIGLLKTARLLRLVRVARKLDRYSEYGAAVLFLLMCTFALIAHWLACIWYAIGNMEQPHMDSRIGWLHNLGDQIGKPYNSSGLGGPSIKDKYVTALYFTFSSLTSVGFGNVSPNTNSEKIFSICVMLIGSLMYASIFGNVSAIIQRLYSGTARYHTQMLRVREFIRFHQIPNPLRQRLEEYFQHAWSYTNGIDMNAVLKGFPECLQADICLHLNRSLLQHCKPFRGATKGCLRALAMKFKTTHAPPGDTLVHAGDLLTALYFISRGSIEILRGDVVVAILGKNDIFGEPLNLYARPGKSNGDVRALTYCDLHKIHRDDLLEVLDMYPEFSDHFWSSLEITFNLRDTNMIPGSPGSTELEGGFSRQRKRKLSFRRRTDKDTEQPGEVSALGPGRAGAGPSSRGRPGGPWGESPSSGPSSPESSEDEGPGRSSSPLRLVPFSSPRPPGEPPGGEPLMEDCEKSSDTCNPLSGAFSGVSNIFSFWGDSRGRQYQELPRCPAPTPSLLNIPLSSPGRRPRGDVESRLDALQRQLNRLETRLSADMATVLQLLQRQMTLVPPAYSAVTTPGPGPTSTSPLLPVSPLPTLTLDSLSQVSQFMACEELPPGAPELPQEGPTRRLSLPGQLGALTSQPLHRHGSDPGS
# PROTOCOL DESCRIPTION: Inhibition of hERG at 3 uM relative to control
# inhibition at 3 µM per entry
OBSERVABLE: inhibition at 3 µM (%)

{"SMILES ENTRY": "Cc1nc(NCc2ncccc2F)c2c(-c3ccnc(N)c3)c[nH]c2n1", "EXPERIMENTAL SYSTEM": "hERG (Homo sapiens, UniProt Q12809)", "OBSERVABLE": "inhibition at 3 µM", "OBS VALUE": 41}
{"SMILES ENTRY": "Cc1nc(NCc2c(F)cccc2F)c2c(-c3ccnc(N)n3)c[nH]c2n1", "EXPERIMENTAL SYSTEM": "hERG (Homo sapiens, UniProt Q12809)", "OBSERVABLE": "inhibition at 3 µM", "OBS VALUE": 42}

====

# PROTOCOL DESCRIPTION: Plasma concentration in BALB/c mouse at 25 mg/kg, po measured after 6 hrs by HPLC-MS/MS analysis
# Type: ADME, organism-based

{"SMILES ENTRY": "Cc1nc(NCc2c(F)cccc2F)c2c(-c3ccnc(N)c3)c[nH]c2n1", "concentration at 6 h / ng/mL": 451}

====

# EXPERIMENTAL SYSTEM: Dual specificity tyrosine-phosphorylation-regulated kinase 2 (Homo sapiens, UniProt Q92630)
# Sequence (Q92630 whole entry): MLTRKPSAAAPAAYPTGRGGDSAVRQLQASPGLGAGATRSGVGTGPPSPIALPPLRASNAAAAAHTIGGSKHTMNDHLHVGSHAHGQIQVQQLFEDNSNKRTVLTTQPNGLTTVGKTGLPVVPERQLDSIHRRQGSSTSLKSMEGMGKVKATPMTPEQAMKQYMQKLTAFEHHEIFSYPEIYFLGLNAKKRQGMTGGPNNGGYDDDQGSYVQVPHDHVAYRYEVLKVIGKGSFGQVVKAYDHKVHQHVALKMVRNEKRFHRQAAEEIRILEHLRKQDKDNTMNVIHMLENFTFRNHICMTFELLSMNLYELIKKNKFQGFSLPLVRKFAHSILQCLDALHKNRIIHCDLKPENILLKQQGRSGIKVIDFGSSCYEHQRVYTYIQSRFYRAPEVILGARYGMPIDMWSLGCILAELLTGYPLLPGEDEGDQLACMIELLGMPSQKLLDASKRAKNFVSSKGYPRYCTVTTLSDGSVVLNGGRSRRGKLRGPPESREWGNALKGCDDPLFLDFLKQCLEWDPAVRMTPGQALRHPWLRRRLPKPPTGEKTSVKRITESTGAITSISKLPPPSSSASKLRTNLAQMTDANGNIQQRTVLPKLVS
# PROTOCOL DESCRIPTION: Inhibition of DYRK2 (unknown origin) by ADP hunter plus assay
pIC50: −log10 of the molar value.
OBSERVABLE: pIC50

{"SMILES ENTRY": "Cc1nc(NCc2c(F)cccc2F)c2c(-c3ccnc(N)n3)c[nH]c2n1", "INEQUALITY OPERATOR": "=", "OBS VALUE": 7.30}
{"SMILES ENTRY": "Cc1nc(-c2ccc3c(c2)OCO3)c2c(-c3ccnc(N)c3)c[nH]c2n1", "INEQUALITY OPERATOR": "<", "OBS VALUE": 5.00}

====

# PROTOCOL DESCRIPTION: Plasma concentration in BALB/c mouse at 25 mg/kg, po measured after 0.5 hrs by HPLC-MS/MS analysis
# Type: ADME, organism-based
OBSERVABLE: concentration at 0.5 h (ng/mL)

{"SMILES ENTRY": "Cc1nc(NCc2c(F)cccc2F)c2c(-c3ccnc(N)c3)c[nH]c2n1", "OBS VALUE": 850}

====

# EXPERIMENTAL SYSTEM: hERG (Homo sapiens, UniProt Q12809)
# PROTOCOL DESCRIPTION: Inhibition of hERG at 1 uM relative to control
# inhibition at 1 µM per entry
OBSERVABLE: inhibition at 1 µM (%)

{"SMILES ENTRY": "Cc1nc(NCc2ncccc2F)c2c(-c3ccnc(N)c3)c[nH]c2n1", "OBS VALUE": 21}
{"SMILES ENTRY": "Cc1nc(NCc2c(F)cccc2F)c2c(-c3ccnc(N)n3)c[nH]c2n1", "OBS VALUE": 25}

====

# EXPERIMENTAL SYSTEM: Dual specificity tyrosine-phosphorylation-regulated kinase 4 (Homo sapiens)
# Sequence (Q9NR20 whole entry): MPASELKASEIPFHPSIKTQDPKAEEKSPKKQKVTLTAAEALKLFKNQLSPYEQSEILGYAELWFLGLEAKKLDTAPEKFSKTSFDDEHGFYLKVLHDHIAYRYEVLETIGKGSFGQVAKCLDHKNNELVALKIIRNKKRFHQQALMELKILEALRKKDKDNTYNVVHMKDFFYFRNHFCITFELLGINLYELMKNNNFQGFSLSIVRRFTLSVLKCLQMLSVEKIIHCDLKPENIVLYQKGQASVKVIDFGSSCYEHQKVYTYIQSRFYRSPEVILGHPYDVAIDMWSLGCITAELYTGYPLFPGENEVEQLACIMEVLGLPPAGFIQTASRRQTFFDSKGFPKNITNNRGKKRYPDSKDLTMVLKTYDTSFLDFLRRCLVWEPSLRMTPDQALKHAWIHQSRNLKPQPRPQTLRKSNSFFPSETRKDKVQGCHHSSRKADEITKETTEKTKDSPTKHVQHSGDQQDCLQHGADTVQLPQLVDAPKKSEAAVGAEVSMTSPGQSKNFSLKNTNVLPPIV
pIC50: −log10 of the molar value.
OBSERVABLE: pIC50

{"SMILES ENTRY": "Cc1nc(NCc2ncccc2F)c2c(-c3ccnc(N)c3)c[nH]c2n1", "OBS VALUE": 5.80}

====

Dual specificity protein kinase CLK1 (Homo sapiens, UniProt P49759) measurements of IC50, listed per entry.
Sequence (P49759 whole entry): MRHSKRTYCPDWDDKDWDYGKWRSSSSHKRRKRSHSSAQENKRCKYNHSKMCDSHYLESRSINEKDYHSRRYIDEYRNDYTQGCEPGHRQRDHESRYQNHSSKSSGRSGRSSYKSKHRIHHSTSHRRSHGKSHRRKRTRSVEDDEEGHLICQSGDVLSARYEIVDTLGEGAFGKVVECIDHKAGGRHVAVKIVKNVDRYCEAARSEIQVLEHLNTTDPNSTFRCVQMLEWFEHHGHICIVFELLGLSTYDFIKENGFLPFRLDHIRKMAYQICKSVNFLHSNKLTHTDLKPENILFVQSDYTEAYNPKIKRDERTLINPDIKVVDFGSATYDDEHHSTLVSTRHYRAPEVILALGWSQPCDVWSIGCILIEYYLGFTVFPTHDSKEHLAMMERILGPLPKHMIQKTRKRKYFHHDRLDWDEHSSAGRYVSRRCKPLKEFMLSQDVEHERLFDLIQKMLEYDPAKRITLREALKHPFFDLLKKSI

{"SMILES ENTRY": "Cc1nc(NCc2ncccc2F)c2c(-c3ccnc(N)c3)c[nH]c2n1", "IC50": "20 nM"}
{"SMILES ENTRY": "Cc1nc(NCc2c(F)cccc2F)c2c(-c3ccnc(N)n3)c[nH]c2n1", "IC50": "20 nM"}

====

# EXPERIMENTAL SYSTEM: Dual specificity tyrosine-phosphorylation-regulated kinase 2 (Homo sapiens, UniProt Q92630)
# PROTOCOL DESCRIPTION: Inhibition of DYRK2 (unknown origin) by TR FRET assay

{"SMILES ENTRY": "Cc1nc(NCc2c(F)cccc2F)c2c(-c3ccnc(N)n3)c[nH]c2n1", "IC50 (nM)": 20}
{"SMILES ENTRY": "Cc1nc(-c2ccc3c(c2)OCO3)c2c(-c3ccnc(N)c3)c[nH]c2n1", "IC50 (nM)": 1800}

Reference source: ChEMBL document CHEMBL5034005
